assayed target: SCRIB_3, Q14160
Sequence (Q14160 999-1103): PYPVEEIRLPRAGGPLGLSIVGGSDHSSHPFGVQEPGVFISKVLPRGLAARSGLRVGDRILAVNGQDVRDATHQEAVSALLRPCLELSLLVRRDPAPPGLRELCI
procedure text: holdup assay
Set-up: key: below the threshold = too weak to quantify, mostly under pKd 3.1 to 4
test context: plain residues with an end cap or a label only (N-terminal biotin on a linker: ttds)
Would you kindly list pKd for each of these binders?
Give bare numbers.

These solved cases illustrate the format of a correct answer.
QSARYRDTEL [TJP2, Q9UDY2] :: 4.65
ERKLSSESQV [LRP4, O75096] :: 3.93
SVWLRKETRV [CYSLTR2, Q9NS75] :: 4.85
IDNDTESTAL [ARHGAP17, Q68EM7] :: 4.57
TVASEKESVM [SLC1A5, Q15758] :: 3.97

Each binder below has a reported value. Please supply its pKd.
1. RSLEEEESQL [GRASP, Q7Z6J2]
2. SRPQRTQTQV [HPV67-E6, A4U7F2]
3. SSRTRRETQL [HPV16-E6, P03126]

1. 4.23
2. 3.93
3. 5.29

Each binder below has a reported value. Please supply its pKd.
1. VLRLQSETSV [VANGL1, Q8TAA9]
2. IYVPEAQTRL [DLGAP4, Q9Y2H0]

[4.54, 3.98]
